Value source: patent US20110059095A1

- SYSTEM_NAME: T1, Peptide A (human PAR-2), unbiotinylated (Human)
- T1 construct: also called Peptide A No Biotin
- T1 peptide: GTNRSSKGRSLIGKVDGT
- PROTOCOL_DETAILS: SPR, antibody captured
For each entry below, report its T1/2 value.

For this binder ( H4H581P (antibody, human IgG4, V domains shown, also called mAb H4H581P; H1H581P variable regions) VH: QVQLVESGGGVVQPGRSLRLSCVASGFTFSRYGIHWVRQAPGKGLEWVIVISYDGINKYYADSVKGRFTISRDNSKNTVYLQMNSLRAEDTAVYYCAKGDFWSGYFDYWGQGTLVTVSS VL: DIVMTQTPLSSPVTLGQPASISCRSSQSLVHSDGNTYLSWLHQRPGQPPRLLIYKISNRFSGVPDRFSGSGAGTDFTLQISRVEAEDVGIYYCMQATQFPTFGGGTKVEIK ), measured T1/2 is 84 s

For this binder ( H4H584P (antibody, human IgG4, V domains shown, also called H1H584P variable regions) VH: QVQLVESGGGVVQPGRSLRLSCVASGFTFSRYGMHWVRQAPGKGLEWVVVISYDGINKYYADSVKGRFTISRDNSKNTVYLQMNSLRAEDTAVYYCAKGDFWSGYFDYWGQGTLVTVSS VL: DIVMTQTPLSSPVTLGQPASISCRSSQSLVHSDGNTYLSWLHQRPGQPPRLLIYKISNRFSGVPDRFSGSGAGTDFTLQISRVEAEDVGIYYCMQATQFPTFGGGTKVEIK ), measured T1/2 is 43.8 s

For this binder ( H4H583P (antibody, human IgG4, V domains shown, also called H1H583P variable regions) VH: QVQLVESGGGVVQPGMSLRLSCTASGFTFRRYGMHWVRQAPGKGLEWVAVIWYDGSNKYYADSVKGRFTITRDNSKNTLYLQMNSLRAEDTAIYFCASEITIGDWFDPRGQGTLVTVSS VL: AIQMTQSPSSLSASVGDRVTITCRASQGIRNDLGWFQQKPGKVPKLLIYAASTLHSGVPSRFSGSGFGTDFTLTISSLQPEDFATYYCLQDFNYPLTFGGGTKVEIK ), measured T1/2 is 22.2 s
